This collection of values is drawn from ChEMBL document CHEMBL4138104.

# System: OVCAR-4
# assay info: Growth inhibition of human OVCAR4 cells incubated for 48 hrs by sulforhodamine B assay
# Type: functional
# settings: OVCAR-4, 48 h
parameter: GI50 (nM)
Reply numerically in nM, unit not repeated.

Inquiry: Any idea what its GI50 is? The molecule is C=C1C(=O)O[C@@H]2[C@H]3O[C@]3(C)CC/C=C(/COC(=O)c3cc4ccccc4o3)CC[C@@H]12
Reply text: 1560

Inquiry: Can you share its GI50? I mean this molecule: C=C1C(=O)O[C@@H]2C3O[C@]3(C)CC/C=C(\C)CC[C@@H]12 (some centres undefined)
Reply text: 21500

Inquiry: Report GI50 for C=C1C(=O)O[C@@H]2[C@H]3O[C@]3(C)CC/C=C(/COC(=O)CCCc3c[nH]c4ccccc34)CC[C@@H]12 please.
Reply text: 1660

Inquiry: // returns reported GI50 for input CN(C)CC1C(=O)O[C@@H]2[C@H]3O[C@]3(C)CC/C=C(/COC(=O)c3cc4ccccc4[nH]3)CC[C@@H]12.O=C(O)/C=C/C(=O)O (some centres undefined)
Reply text: 1360
